# ASSAY TARGET: RNA-binding protein pos-1 (Caenorhabditis elegans)
# Sequence (G5EF15 whole entry, the tested form may be a part): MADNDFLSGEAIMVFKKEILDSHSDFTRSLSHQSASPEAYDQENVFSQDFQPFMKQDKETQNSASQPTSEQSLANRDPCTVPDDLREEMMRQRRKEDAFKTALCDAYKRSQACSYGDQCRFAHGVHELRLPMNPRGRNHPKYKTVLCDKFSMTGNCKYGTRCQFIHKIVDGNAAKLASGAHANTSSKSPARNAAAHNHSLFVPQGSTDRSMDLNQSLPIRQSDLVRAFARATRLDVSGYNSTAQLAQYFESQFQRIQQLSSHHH
# TEST: disruptors of C. elegans POS-1 RNA interaction – biochemical, fluorescence polarization, dose response (AID 1964);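 also: purified POS-1 fused to maltose binding protein made in E. coli; potency of compounds blocking POS-1 binding to fluorescent RNA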
Entries and their EC50

Solved cases (3 shown):
CCN(CC)c1ccc(/C=C/C(=O)c2ccc(Br)cc2)cc1 : 13.8 µM (inconclusive)
CC1(C)CC(=O)C2=C(C1)OC(N)=C(C#N)C2c1ccc(OC(=O)N2CCOCC2)cc1 (stereo not given) : > 300 µM (not active)
CC1(OC(=O)C2CCCC2)C(=O)C=C2C=C(C3CC3)OC=C2C1=O (stereo not given) : > 300 µM (not active)

Kindly consider the entry below.
So the reported EC50 for CCOc1cc(C2C(C#N)=C(N)OC(C)=C2C(C)=O)cc(Br)c1O (stereo not given) , on RNA-binding protein pos-1 (Caenorhabditis elegans), turned out to be 12.3 µM (inconclusive)
